# Tested on: SW480
# ASSAY: Cytotoxicity in SW480 cancer cell line
# Format: functional, cell-based
# DETAILS: Homo sapiens
READOUT_TYPE: IC50 (µg/mL)
One number for each entry, in µg/mL.

In: IC50 for CC[C@@]1(O)C(=O)OCc2c1cc1n(c2=O)Cc2c-1nc1ccccc1c2/C=N/NC(=O)C(N)Cc1ccc(O)cc1.Cl (stereo partly drawn) ?
Out: 0.4

In: Fill in: IC50 of CC[C@@]1(O)C(=O)OCc2c1cc1n(c2=O)Cc2cc3ccccc3nc2-1 [CAMPTOTHECIN] is ___
Out: 0.01

In: Item under review: CC[C@@]1(O)C(=O)OCc2c1cc1n(c2=O)Cc2c-1nc1ccccc1c2/C=N/NC(=O)C(C)N.Cl (stereo partly drawn) . Reported IC50?
Out: 0.6

Hi team, please reply with IC50 for each item in this list.
1. CC[C@@]1(O)C(=O)OCc2c1cc1n(c2=O)Cc2c-1nc1ccccc1c2/C=N/NC(=O)C1CCCN1.Cl (stereo partly drawn)
2. CC[C@@]1(O)C(=O)OCc2c1cc1n(c2=O)Cc2c-1nc1ccccc1c2/C=N/NC(=O)C(N)CC(C)C.Cl (stereo partly drawn)
3. CC[C@@]1(O)C(=O)OCc2c1cc1n(c2=O)Cc2c-1nc1ccccc1c2/C=N/NC(=O)C(N)CO.Cl (stereo partly drawn)
4. CC[C@@]1(O)C(=O)OCc2c1cc1n(c2=O)Cc2c-1nc1ccccc1c2/C=N/NC(=O)CN.Cl
5. CC[C@@]1(O)C(=O)OCc2c1cc1n(c2=O)Cc2c-1nc1ccccc1c2/C=N/NC(=O)C(N)CCSC.Cl (stereo partly drawn)

Out:
0.7
0.04
1
0.1
0.8
